# TESTED_TARGET: Bromodomain testis-specific protein (Homo sapiens, UniProt Q58F21)
# METHOD_DESCRIPTION: Binding affinity to human partial length BRDT BD2 expressed in bacterial expression system assessed as dissociation constant by BROMOscan assay
ASSAY_READOUT: Kd (nM)
Could you give me the number in nM? Just the number is fine.

Short answer please: Kd, Bromodomain testis-specific protein (Homo sapiens, UniProt Q58F21), entry `Cc1cc(C)cc(Oc2cccc(-c3c(C)nnn3C3CCN(CCN(C)C)CC3)n2)c1` 250

* * *

# TESTED_TARGET: Bromodomain-containing protein 3 (Homo sapiens, UniProt Q15059)
# Sequence (Q15059 whole entry): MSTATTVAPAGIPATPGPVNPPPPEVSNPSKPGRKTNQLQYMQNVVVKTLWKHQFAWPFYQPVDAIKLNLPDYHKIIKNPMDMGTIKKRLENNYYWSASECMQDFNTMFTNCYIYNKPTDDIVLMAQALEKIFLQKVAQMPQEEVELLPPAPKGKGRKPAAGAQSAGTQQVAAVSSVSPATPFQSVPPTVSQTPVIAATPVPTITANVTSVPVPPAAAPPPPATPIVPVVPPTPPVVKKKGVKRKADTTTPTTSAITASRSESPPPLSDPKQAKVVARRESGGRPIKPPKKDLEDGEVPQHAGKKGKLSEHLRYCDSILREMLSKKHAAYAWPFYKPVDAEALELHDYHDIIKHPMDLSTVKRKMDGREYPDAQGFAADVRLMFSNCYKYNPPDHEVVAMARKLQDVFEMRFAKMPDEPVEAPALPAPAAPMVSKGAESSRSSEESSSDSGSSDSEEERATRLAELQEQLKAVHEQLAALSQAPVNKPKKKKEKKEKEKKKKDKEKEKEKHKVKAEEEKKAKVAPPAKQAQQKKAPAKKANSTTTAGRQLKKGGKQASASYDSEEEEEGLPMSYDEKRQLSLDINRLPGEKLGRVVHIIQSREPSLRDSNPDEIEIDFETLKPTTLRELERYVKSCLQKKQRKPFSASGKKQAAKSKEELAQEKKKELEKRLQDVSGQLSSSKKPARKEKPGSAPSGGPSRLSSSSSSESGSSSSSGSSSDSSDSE
# METHOD_DESCRIPTION: Binding affinity to human partial length BRD3 BD2 expressed in bacterial expression system assessed as dissociation constant by BROMOscan assay
ASSAY_READOUT: Kd (nM)
Could you give me the number in nM? Just the number is fine.

Would you kindly share the measured Kd for `Cc1cc(C)cc(Oc2cccc(-c3c(C)nnn3C3CCN(CCN(C)C)CC3)n2)c1` ? 310

// provenance: ChEMBL document CHEMBL5036329
